# Test system: NCI-H3122
# Experiment Notes: relative viability (nuclei count vs DMSO), 5 days (fraction); higher = more cells survive
# Measurement Context: first compound 0.01 µM
Item-by-item account of relative viability

Cc1cn(-c2cc(NC(=O)c3ccc(C)c(Nc4nccc(-c5cccnc5)n4)c3)cc(C(F)(F)F)c2)cn1 [Nilotinib] + O=C(c1cc(Cc2n[nH]c(=O)c3ccccc23)ccc1F)N1CCN(C(=O)C2CC2)CC1 [Olaparib] (partner 8 µM) ... 0.848
Cc1cn(-c2cc(NC(=O)c3ccc(C)c(Nc4nccc(-c5cccnc5)n4)c3)cc(C(F)(F)F)c2)cn1 [Nilotinib] + COc1cc2c(Oc3ccc(NC(=O)C4(C(=O)Nc5ccc(F)cc5)CC4)cc3F)ccnc2cc1OCCCN1CCOCC1 [Foretinib] (partner 0.25 µM) ... 1.08
Cc1cn(-c2cc(NC(=O)c3ccc(C)c(Nc4nccc(-c5cccnc5)n4)c3)cc(C(F)(F)F)c2)cn1 [Nilotinib] + Cc1cc(Nc2cc(N3CCN(C)CC3)nc(Sc3ccc(NC(=O)C4CC4)cc3)n2)n[nH]1 [Tozasertib] (partner 0.1 µM) ... 0.436

Pending compound:
compound Cc1cn(-c2cc(NC(=O)c3ccc(C)c(Nc4nccc(-c5cccnc5)n4)c3)cc(C(F)(F)F)c2)cn1 [Nilotinib] + NC(=O)Nc1cc(-c2cccc(F)c2)sc1C(=O)N[C@H]1CCCNC1 [AZD7762] (partner 0.2 µM) , relative viability observed: 1.37

---

# Tested on: NCI-H2405
# Experiment Notes: relative viability (nuclei count vs DMSO), 5 days (fraction); higher = more cells survive
# Measurement Context: first compound 0.06325 µM
Observable: relative viability

Example entries begin here.
CCNC(=O)c1noc(-c2cc(C(C)C)c(O)cc2O)c1-c1ccc(CN2CCOCC2)cc1 [Luminespib] + CS(=O)(=O)CCNCc1ccc(-c2ccc3ncnc(Nc4ccc(OCc5cccc(F)c5)c(Cl)c4)c3c2)o1 [Lapatinib] (partner 2 µM) ... 0.144
CCNC(=O)c1noc(-c2cc(C(C)C)c(O)cc2O)c1-c1ccc(CN2CCOCC2)cc1 [Luminespib] + CC1(C)CCC(c2ccc(Cl)cc2)=C(CN2CCN(c3ccc(C(=O)NS(=O)(=O)c4ccc(N[C@H](CCN5CCOCC5)CSc5ccccc5)c(S(=O)(=O)C(F)(F)F)c4)cc3)CC2)C1 [Navitoclax] (partner 0.5 µM) ... 0.188

molecule CCNC(=O)c1noc(-c2cc(C(C)C)c(O)cc2O)c1-c1ccc(CN2CCOCC2)cc1 [Luminespib] + COc1cccc2cc(-c3nc([C@H]4CC[C@H](C(=O)O)CC4)n4ncnc(N)c34)[nH]c12 [OSI-027] (partner 0.5 µM) , relative viability observed: 0.196

---

# System: NCI-H2347
# Experiment Notes: relative viability (nuclei count vs DMSO), 5 days (fraction); higher = more cells survive
# Measurement Context: first compound 0.02 µM
Item-by-item account of relative viability
Give only the figure.

CN1CCN(CCOc2cc(OC3CCOCC3)c3c(Nc4c(Cl)ccc5c4OCO5)ncnc3c2)CC1 [Saracatinib] + Cc1nc(NC(=O)N2CCC[C@H]2C(N)=O)sc1-c1ccnc(C(C)(C)C(F)(F)F)c1 [Alpelisib] (partner 2 µM) ... 1.03

Pending molecule:
molecule CCNC(=O)c1noc(-c2cc(C(C)C)c(O)cc2O)c1-c1ccc(CN2CCOCC2)cc1 [Luminespib] + CS(=O)(=O)CCNCc1ccc(-c2ccc3ncnc(Nc4ccc(OCc5cccc(F)c5)c(Cl)c4)c3c2)o1 [Lapatinib] (partner 2 µM) , relative viability observed: 0.876

---

# Test system: EMC-BAC-2
# Experiment Notes: relative viability (nuclei count vs DMSO), 5 days (fraction); higher = more cells survive
# Measurement Context: first compound 0.003162 µM
Observable: relative viability

Cc1cn(-c2cc(NC(=O)c3ccc(C)c(Nc4nccc(-c5cccnc5)n4)c3)cc(C(F)(F)F)c2)cn1 [Nilotinib] + CS(=O)(=O)CCNCc1ccc(-c2ccc3ncnc(Nc4ccc(OCc5cccc(F)c5)c(Cl)c4)c3c2)o1 [Lapatinib] (partner 2 µM) ... 0.952

Pending molecule:
molecule Cc1cn(-c2cc(NC(=O)c3ccc(C)c(Nc4nccc(-c5cccnc5)n4)c3)cc(C(F)(F)F)c2)cn1 [Nilotinib] + N=C(N)NC(=N)NCCc1ccccc1 [Phenformin] (partner 250 µM) , relative viability observed: 0.553

---

# System: PC-14
# Experiment Notes: relative viability (nuclei count vs DMSO), 5 days (fraction); higher = more cells survive
# Measurement Context: first compound 0.02 µM
Class field: derived from relative viability; ranges band A (below 0.2), band B (0.2 to below 0.6), band C (0.6 or more)

Observe how each entry below is paired with its result.
CCNC(=O)c1noc(-c2cc(C(C)C)c(O)cc2O)c1-c1ccc(CN2CCOCC2)cc1 [Luminespib] + Nc1ncn([C@H]2C[C@H](O)[C@@H](CO)O2)c(=O)n1 [Decitabine] (partner 2 µM) ... band A
CCNC(=O)c1noc(-c2cc(C(C)C)c(O)cc2O)c1-c1ccc(CN2CCOCC2)cc1 [Luminespib] + CC1(C)CCC(c2ccc(Cl)cc2)=C(CN2CCN(c3ccc(C(=O)NS(=O)(=O)c4ccc(N[C@H](CCN5CCOCC5)CSc5ccccc5)c(S(=O)(=O)C(F)(F)F)c4)cc3)CC2)C1 [Navitoclax] (partner 0.5 µM) ... band C

// return the class label for CN1CCN(CCOc2cc(OC3CCOCC3)c3c(Nc4c(Cl)ccc5c4OCO5)ncnc3c2)CC1 [Saracatinib] + Cc1nc(Nc2ncc(C(=O)Nc3c(C)cccc3Cl)s2)cc(N2CCN(CCO)CC2)n1 [Dasatinib] (partner 0.075 µM) band B

// return the class label for CCNC(=O)c1noc(-c2cc(C(C)C)c(O)cc2O)c1-c1ccc(CN2CCOCC2)cc1 [Luminespib] + NC(=O)Nc1cc(-c2cccc(F)c2)sc1C(=O)N[C@H]1CCCNC1 [AZD7762] (partner 0.2 µM) band A

---

# System: 201T
# Experiment Notes: relative viability (nuclei count vs DMSO), 5 days (fraction); higher = more cells survive
# Measurement Context: first compound 0.2 µM
Observable: relative viability

Example entries begin here.
CN1CCN(CCOc2cc(OC3CCOCC3)c3c(Nc4c(Cl)ccc5c4OCO5)ncnc3c2)CC1 [Saracatinib] + CC(C)C[C@H](NC(=O)[C@H](Cc1ccccc1)NC(=O)c1cnccn1)B(O)O [Bortezomib] (partner 0.002 µM) ... 1
CN1CCN(CCOc2cc(OC3CCOCC3)c3c(Nc4c(Cl)ccc5c4OCO5)ncnc3c2)CC1 [Saracatinib] + COc1cccc2cc(-c3nc([C@H]4CC[C@H](C(=O)O)CC4)n4ncnc(N)c34)[nH]c12 [OSI-027] (partner 0.5 µM) ... 0.53
CN1CCN(CCOc2cc(OC3CCOCC3)c3c(Nc4c(Cl)ccc5c4OCO5)ncnc3c2)CC1 [Saracatinib] + N=C(N)NC(=N)NCCc1ccccc1 [Phenformin] (partner 250 µM) ... 0.415
CN1CCN(CCOc2cc(OC3CCOCC3)c3c(Nc4c(Cl)ccc5c4OCO5)ncnc3c2)CC1 [Saracatinib] + Nc1ncn([C@H]2C[C@H](O)[C@@H](CO)O2)c(=O)n1 [Decitabine] (partner 2 µM) ... 0.644
CN1CCN(CCOc2cc(OC3CCOCC3)c3c(Nc4c(Cl)ccc5c4OCO5)ncnc3c2)CC1 [Saracatinib] + Cc1cc(Nc2cc(N3CCN(C)CC3)nc(Sc3ccc(NC(=O)C4CC4)cc3)n2)n[nH]1 [Tozasertib] (partner 0.1 µM) ... 0.89
CN1CCN(CCOc2cc(OC3CCOCC3)c3c(Nc4c(Cl)ccc5c4OCO5)ncnc3c2)CC1 [Saracatinib] + CC(=O)c1c(C)c2cnc(Nc3ccc(N4CCNCC4)cn3)nc2n(C2CCCC2)c1=O [Palbociclib] (partner 0.5 µM) ... 0.311
Cc1csc(=NC2CCCCC2)n1/N=C/c1ccc(O)c(O)c1O [MIM1] + C[C@@H](Oc1cc(-c2cnn(C3CCNCC3)c2)cnc1N)c1c(Cl)ccc(F)c1Cl [Crizotinib] (partner 1 µM) ... 1.01
CN1CCN(CCOc2cc(OC3CCOCC3)c3c(Nc4c(Cl)ccc5c4OCO5)ncnc3c2)CC1 [Saracatinib] + Cc1nc(NC(=O)N2CCC[C@H]2C(N)=O)sc1-c1ccnc(C(C)(C)C(F)(F)F)c1 [Alpelisib] (partner 2 µM) ... 0.865

Pending compound:
compound CCNC(=O)c1noc(-c2cc(C(C)C)c(O)cc2O)c1-c1ccc(CN2CCOCC2)cc1 [Luminespib] + NC(=O)Nc1cc(-c2cccc(F)c2)sc1C(=O)N[C@H]1CCCNC1 [AZD7762] (partner 0.2 µM) , relative viability observed: 0.318

---

Item-by-item account of relative viability
# Test system: LOU-NH91
# Experiment Notes: relative viability (nuclei count vs DMSO), 5 days (fraction); higher = more cells survive
# Measurement Context: first compound 2.53 µM
Give only the figure.

Example entries begin here.
Nc1cccc2c1CN(C1CCC(=O)NC1=O)C2=O (stereo not drawn) [Lenalidomide] + CCNC(=O)c1noc(-c2cc(C(C)C)c(O)cc2O)c1-c1ccc(CN2CCOCC2)cc1 [Luminespib] (partner 0.01 µM) ... 0.313
Nc1cccc2c1CN(C1CCC(=O)NC1=O)C2=O (stereo not drawn) [Lenalidomide] + CS(=O)(=O)N1CCN(Cc2cc3nc(-c4cccc5[nH]ncc45)nc(N4CCOCC4)c3s2)CC1 [Pictilisib] (partner 1 µM) ... 0.445

Pending compound:
compound Nc1cccc2c1CN(C1CCC(=O)NC1=O)C2=O (stereo not drawn) [Lenalidomide] + C[C@@H](Oc1cc(-c2cnn(C3CCNCC3)c2)cnc1N)c1c(Cl)ccc(F)c1Cl [Crizotinib] (partner 1 µM) , relative viability observed: 0.714

Hey, just so you know, these numbers are from the supplement of paper PMC10307832.
